Origin of the recorded values: patent US20230019491A1

- SYSTEM: TBK1 (Homo sapiens, UniProt Q9UHD2)
- Sequence (Q9UHD2 whole entry, species assumed): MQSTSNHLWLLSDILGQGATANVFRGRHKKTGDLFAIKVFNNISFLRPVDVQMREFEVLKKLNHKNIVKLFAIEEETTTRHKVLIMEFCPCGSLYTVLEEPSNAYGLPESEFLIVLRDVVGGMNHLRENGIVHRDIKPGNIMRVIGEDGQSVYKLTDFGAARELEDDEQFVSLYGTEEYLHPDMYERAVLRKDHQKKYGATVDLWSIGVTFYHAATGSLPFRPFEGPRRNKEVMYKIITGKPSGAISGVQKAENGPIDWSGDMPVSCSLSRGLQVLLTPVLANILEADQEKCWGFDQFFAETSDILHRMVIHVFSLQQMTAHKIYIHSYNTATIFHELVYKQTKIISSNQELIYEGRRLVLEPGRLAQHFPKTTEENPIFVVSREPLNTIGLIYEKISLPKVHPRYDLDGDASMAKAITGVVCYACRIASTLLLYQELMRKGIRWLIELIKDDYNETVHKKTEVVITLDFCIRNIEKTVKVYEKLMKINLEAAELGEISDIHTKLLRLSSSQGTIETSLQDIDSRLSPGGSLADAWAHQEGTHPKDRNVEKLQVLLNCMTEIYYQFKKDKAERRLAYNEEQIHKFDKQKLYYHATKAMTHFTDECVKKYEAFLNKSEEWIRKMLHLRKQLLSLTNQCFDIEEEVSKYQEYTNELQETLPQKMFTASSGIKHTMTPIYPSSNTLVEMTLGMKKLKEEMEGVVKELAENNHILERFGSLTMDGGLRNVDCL
- METHOD SUMMARY: TBK biochemical assay
- SETUP CONDITIONS: 10 point 1:4 dose response, 30 uM top concentration, 90 min at 25° C., LabChip EZ Reader II; read-out: TBK1_IC50
pIC50: −log10 of the molar value. Counter-ions that a name gives are not always drawn.
PROPERTY MEASURED: pIC50

| COMPOUND | PROPERTY MEASURED | OBSERVED MEASUREMENT |
| --- | --- | --- |
| COc1nc(Nc2ncc(C)c(-c3ccc(OC4CCN(C(=O)[C@@H](C)O)CC4(F)F)c(C#N)c3)n2)ccc1N1CCN(C2COC2)CC1 (stereo partly drawn) | pIC50 | > 7.00 |
| COc1cc(Nc2nccc(-c3ccc(O[C@@H]4CCN(C(=O)[C@@H](C)O)CC4(F)F)c(C#N)c3)n2)ccn1 | pIC50 | > 7.00 |
| CC(O)C(=O)N1CC[C@H](Oc2ccc(-c3nc(Nc4ccc(N5CCN(C6COC6)CC5)cc4)ncc3F)cc2C#N)[C@H](F)C1 (stereo partly drawn) | pIC50 | > 7.00 |
| COc1nc(Nc2nccc(-c3ccc(OC4CCN(C(=O)CO)CC4)c(C#N)c3)n2)ccc1C(=O)N(C)C | pIC50 | > 7.00 |
| N#Cc1cc(-c2ccnc(Nc3ccccn3)n2)ccc1OC1CCN(C(=O)[C@@H](O)CO)CC1(F)F (stereo partly drawn) | pIC50 | > 7.00 |
| N#Cc1cc(-c2ccnc(Nc3ccc(N4CCN(C5COC5)CC4)cc3)n2)ccc1OC1CNC1 | pIC50 | > 7.00 |
| COc1nc(Nc2nccc(-c3ccc(OC4CCOCC4)c(C#N)c3)n2)ccc1C(=O)N1CCNC(=O)C1 | pIC50 | > 7.00 |
| COc1nc(Nc2nccc(-c3ccc(OC4CCN(C(=O)C(C)(C)O)CC4(F)F)c(C#N)c3)n2)ccc1N1CCN(C)C[C@H]1C (stereo partly drawn) | pIC50 | > 7.00 |
| COc1nc(Nc2nccc(-c3ccc(OC4CCNCC4)c(C#N)c3)n2)ccc1N1CCN(C2COC2)CC1 | pIC50 | > 7.00 |
| COc1nc(Nc2nccc(-c3ccc(OC4CCN(C(=O)[C@@H](C)O)CC4(F)F)c(C#N)c3)n2)ccc1N1CCN(C2COC2)C[C@H]1C (stereo partly drawn) | pIC50 | > 7.00 |
| COc1cc(Nc2nccc(-c3ccc(OC4CCOCC4)c(C#N)c3)n2)ncc1C(=O)N(C)C | pIC50 | 6.00 to 7.00 |
| CN1CCN(c2ccc(Nc3nccc(-c4ccc(OC5CCN(C)C5)c(C#N)c4)n3)nc2)CC1 (stereo not drawn) [Example 82, hydrochloride] | pIC50 | < 5.30 |
| C[C@H](O)C(=O)N1CC[C@H](Oc2ccc(-c3ccnc(Nc4ccc(N5CCN(C6COC6)CC5)cc4)n3)cc2C#N)C(F)(F)C1 | pIC50 | > 7.00 |
| COc1nc(Nc2nccc(-c3ccc(OC4CCNCC4(F)F)c(C#N)c3)n2)ccc1N1CCN(C)C[C@@H]1C (stereo partly drawn) | pIC50 | > 7.00 |
| N#Cc1cc(-c2ccnc(Nc3ccc(N4CCN(C5CC5)CC4)cc3)n2)ccc1OC1CCOCC1 | pIC50 | > 7.00 |
| COc1cc(Nc2nccc(-c3cc(C#N)c(OC4CCOCC4)cn3)n2)cnc1C(=O)N(C)C | pIC50 | 5.30 to 6.00 |
| COc1nc(Nc2nccc(-c3ccc(O[C@H]4CCN(C(=O)[C@H](C)O)C[C@H]4F)c(C#N)c3)n2)ccc1N1CCN(C2COC2)CC1 [Example 199] | pIC50 | > 7.00 |
| COc1nc(Nc2nccc(-c3ccc(OC4CCN(C)C4)c(C#N)c3)n2)ccc1N1CCN(C)CC1 (stereo not drawn) | pIC50 | > 7.00 |
